# System: Lactobacillus acidophilus
# procedure_details: Antimicrobial activity against Lactobacillus acidophilus by Wadsworth agar dilution method
# Type: functional
Please respond with reported MIC50 for every item in the list.
State just the number; it will be interpreted in µg/mL.

query: Consider the molecule CN[C@H](CC(C)C)C(=O)N[C@H]1C(=O)N[C@@H](CC(N)=O)C(=O)N[C@H]2C(=O)N[C@H]3C(=O)N[C@H](C(=O)N[C@H](C(=O)O)c4cc(O)cc(O)c4-c4cc3ccc4O)[C@H](O)c3ccc(c(Cl)c3)Oc3cc2cc(c3O[C@@H]2O[C@H](CO)[C@@H](O)[C@H](O)[C@H]2O[C@H]2C[C@](C)(N)[C@H](O)[C@H](C)O2)Oc2ccc(cc2Cl)[C@H]1O [VANCOMYCIN] and give its recorded MIC50.
result: 1

query: Consider the molecule CC(=O)Oc1ccccc1C(=O)Nc1ncc([N+](=O)[O-])s1 [NITAZOXANIDE] and give its recorded MIC50.
result: 2

query: Consider the molecule NC[C@@H]1O[C@H](O[C@H]2[C@@H](O)[C@H](O[C@@H]3[C@@H](O)[C@H](N)C[C@H](N)[C@H]3O[C@H]3O[C@H](CN)[C@@H](O)[C@H](O)[C@H]3N)O[C@@H]2CO)[C@H](N)[C@@H](O)[C@@H]1O [FRAMYCETIN] and give its recorded MIC50.
result: 128

query: Consider the molecule CO[C@H]1/C=C/O[C@@]2(C)Oc3c(C)c(O)c4c(O)c(c5c(nc6cc(C)ccn65)c4c3C2=O)NC(=O)/C(C)=C\C=C\[C@H](C)[C@H](O)[C@@H](C)[C@@H](O)[C@@H](C)[C@H](OC(C)=O)[C@@H]1C [RIFAXIMIN] and give its recorded MIC50.
result: 0.5

* * *

Please respond with reported MIC50 for every item in the list.
# System: Bacteroides caccae
# procedure_details: Antimicrobial activity against Bacteroides caccae by Wadsworth agar dilution method
# Assay type: functional
State just the number; it will be interpreted in µg/mL.

query: Write down the reported MIC50 (system: Bacteroides caccae) of `CN[C@H](CC(C)C)C(=O)N[C@H]1C(=O)N[C@@H](CC(N)=O)C(=O)N[C@H]2C(=O)N[C@H]3C(=O)N[C@H](C(=O)N[C@H](C(=O)O)c4cc(O)cc(O)c4-c4cc3ccc4O)[C@H](O)c3ccc(c(Cl)c3)Oc3cc2cc(c3O[C@@H]2O[C@H](CO)[C@@H](O)[C@H](O)[C@H]2O[C@H]2C[C@](C)(N)[C@H](O)[C@H](C)O2)Oc2ccc(cc2Cl)[C@H]1O`
result: 32

query: Write down the reported MIC50 (system: Bacteroides caccae) of `CO[C@H]1/C=C/O[C@@]2(C)Oc3c(C)c(O)c4c(O)c(c5c(nc6cc(C)ccn65)c4c3C2=O)NC(=O)/C(C)=C\C=C\[C@H](C)[C@H](O)[C@@H](C)[C@@H](O)[C@@H](C)[C@H](OC(C)=O)[C@@H]1C`
result: 0.25

query: Write down the reported MIC50 (system: Bacteroides caccae) of CC(=O)Oc1ccccc1C(=O)Nc1ncc([N+](=O)[O-])s1 [NITAZOXANIDE]
result: 2

* * *

Please respond with reported MIC50 for every item in the list.
# System: Clostridium glycolicum
# procedure_details: Antimicrobial activity against Clostridium glycolicum by Wadsworth agar dilution method
# Assay type: functional
# measurement_context: Terrisporobacter glycolicus
State just the number; it will be interpreted in µg/mL.

query: Consider the molecule `CO[C@H]1/C=C/O[C@@]2(C)Oc3c(C)c(O)c4c(O)c(c5c(nc6cc(C)ccn65)c4c3C2=O)NC(=O)/C(C)=C\C=C\[C@H](C)[C@H](O)[C@@H](C)[C@@H](O)[C@@H](C)[C@H](OC(C)=O)[C@@H]1C` and give its recorded MIC50.
result: 0.25

query: Consider the molecule `NC[C@@H]1O[C@H](O[C@H]2[C@@H](O)[C@H](O[C@@H]3[C@@H](O)[C@H](N)C[C@H](N)[C@H]3O[C@H]3O[C@H](CN)[C@@H](O)[C@H](O)[C@H]3N)O[C@@H]2CO)[C@H](N)[C@@H](O)[C@@H]1O` and give its recorded MIC50.
result: 256

query: Consider the molecule CC(=O)Oc1ccccc1C(=O)Nc1ncc([N+](=O)[O-])s1 [NITAZOXANIDE] and give its recorded MIC50.
result: 0.5

query: Consider the molecule `CN[C@H](CC(C)C)C(=O)N[C@H]1C(=O)N[C@@H](CC(N)=O)C(=O)N[C@H]2C(=O)N[C@H]3C(=O)N[C@H](C(=O)N[C@H](C(=O)O)c4cc(O)cc(O)c4-c4cc3ccc4O)[C@H](O)c3ccc(c(Cl)c3)Oc3cc2cc(c3O[C@@H]2O[C@H](CO)[C@@H](O)[C@H](O)[C@H]2O[C@H]2C[C@](C)(N)[C@H](O)[C@H](C)O2)Oc2ccc(cc2Cl)[C@H]1O` and give its recorded MIC50.
result: 1

* * *

# System: Bacteroides stercoris
# procedure_details: Antimicrobial activity against Bacteroides stercoris by Wadsworth agar dilution method
# Type: functional
Please respond with reported MIC90 for every item in the list.
State just the number; it will be interpreted in µg/mL.

query: Consider the compound CC(=O)Oc1ccccc1C(=O)Nc1ncc([N+](=O)[O-])s1 [NITAZOXANIDE] and give its recorded MIC90.
result: 4

query: Consider the compound `CN[C@H](CC(C)C)C(=O)N[C@H]1C(=O)N[C@@H](CC(N)=O)C(=O)N[C@H]2C(=O)N[C@H]3C(=O)N[C@H](C(=O)N[C@H](C(=O)O)c4cc(O)cc(O)c4-c4cc3ccc4O)[C@H](O)c3ccc(c(Cl)c3)Oc3cc2cc(c3O[C@@H]2O[C@H](CO)[C@@H](O)[C@H](O)[C@H]2O[C@H]2C[C@](C)(N)[C@H](O)[C@H](C)O2)Oc2ccc(cc2Cl)[C@H]1O` and give its recorded MIC90.
result: 128

query: Consider the compound `CO[C@H]1/C=C/O[C@@]2(C)Oc3c(C)c(O)c4c(O)c(c5c(nc6cc(C)ccn65)c4c3C2=O)NC(=O)/C(C)=C\C=C\[C@H](C)[C@H](O)[C@@H](C)[C@@H](O)[C@@H](C)[C@H](OC(C)=O)[C@@H]1C` and give its recorded MIC90.
result: 0.5

* * *

# procedure_details: Drug level in stool of patient with traveler's diarrhea at 800 mg, po administered daily for 3 days
# Type: ADME, organism-based
# measurement_context: human, in vivo, 72 h
reported_endpoint: concentration (µg/g)
State just the number; it will be interpreted in µg/g.

query: Consider the compound `CO[C@H]1/C=C/O[C@@]2(C)Oc3c(C)c(O)c4c(O)c(c5c(nc6cc(C)ccn65)c4c3C2=O)NC(=O)/C(C)=C\C=C\[C@H](C)[C@H](O)[C@@H](C)[C@@H](O)[C@@H](C)[C@H](OC(C)=O)[C@@H]1C` and give its recorded concentration.
result: 8000

* * *

Please respond with reported MIC90 for every item in the list.
# System: [Clostridium] innocuum
# procedure_details: Antimicrobial activity against Clostridium innocuum by Wadsworth agar dilution method
# Type: functional
State just the number; it will be interpreted in µg/mL.

query: Consider the molecule CC(=O)Oc1ccccc1C(=O)Nc1ncc([N+](=O)[O-])s1 [NITAZOXANIDE] and give its recorded MIC90.
result: 4

query: Consider the molecule CN[C@H](CC(C)C)C(=O)N[C@H]1C(=O)N[C@@H](CC(N)=O)C(=O)N[C@H]2C(=O)N[C@H]3C(=O)N[C@H](C(=O)N[C@H](C(=O)O)c4cc(O)cc(O)c4-c4cc3ccc4O)[C@H](O)c3ccc(c(Cl)c3)Oc3cc2cc(c3O[C@@H]2O[C@H](CO)[C@@H](O)[C@H](O)[C@H]2O[C@H]2C[C@](C)(N)[C@H](O)[C@H](C)O2)Oc2ccc(cc2Cl)[C@H]1O [VANCOMYCIN] and give its recorded MIC90.
result: 256

* * *

# Test system: Clostridium symbiosum
# procedure_details: Antimicrobial activity against Clostridium symbiosum by Wadsworth agar dilution method
# Assay type: functional
reported_endpoint: MIC50
Show the value, then the unit it is measured in.

query: Write down the reported MIC50 (system: Clostridium symbiosum) of CC(=O)Oc1ccccc1C(=O)Nc1ncc([N+](=O)[O-])s1 [NITAZOXANIDE]
result: 0.5 µg/mL

query: Write down the reported MIC50 (system: Clostridium symbiosum) of CO[C@H]1/C=C/O[C@@]2(C)Oc3c(C)c(O)c4c(O)c(c5c(nc6cc(C)ccn65)c4c3C2=O)NC(=O)/C(C)=C\C=C\[C@H](C)[C@H](O)[C@@H](C)[C@@H](O)[C@@H](C)[C@H](OC(C)=O)[C@@H]1C [RIFAXIMIN]
result: 0.25 µg/mL

query: Write down the reported MIC50 (system: Clostridium symbiosum) of NC[C@@H]1O[C@H](O[C@H]2[C@@H](O)[C@H](O[C@@H]3[C@@H](O)[C@H](N)C[C@H](N)[C@H]3O[C@H]3O[C@H](CN)[C@@H](O)[C@H](O)[C@H]3N)O[C@@H]2CO)[C@H](N)[C@@H](O)[C@@H]1O [FRAMYCETIN]
result: 256 µg/mL

query: Write down the reported MIC50 (system: Clostridium symbiosum) of CN[C@H](CC(C)C)C(=O)N[C@H]1C(=O)N[C@@H](CC(N)=O)C(=O)N[C@H]2C(=O)N[C@H]3C(=O)N[C@H](C(=O)N[C@H](C(=O)O)c4cc(O)cc(O)c4-c4cc3ccc4O)[C@H](O)c3ccc(c(Cl)c3)Oc3cc2cc(c3O[C@@H]2O[C@H](CO)[C@@H](O)[C@H](O)[C@H]2O[C@H]2C[C@](C)(N)[C@H](O)[C@H](C)O2)Oc2ccc(cc2Cl)[C@H]1O [VANCOMYCIN]
result: 1 µg/mL

The reported numbers originate from ChEMBL document CHEMBL1275577.
